# targetOfAssay: UDP-3-O-acyl-N-acetylglucosamine deacetylase (Pseudomonas aeruginosa (strain ATCC 15692 / PAO1 / 1C / PRS 101 / LMG12228))
# Sequence (P47205 whole entry): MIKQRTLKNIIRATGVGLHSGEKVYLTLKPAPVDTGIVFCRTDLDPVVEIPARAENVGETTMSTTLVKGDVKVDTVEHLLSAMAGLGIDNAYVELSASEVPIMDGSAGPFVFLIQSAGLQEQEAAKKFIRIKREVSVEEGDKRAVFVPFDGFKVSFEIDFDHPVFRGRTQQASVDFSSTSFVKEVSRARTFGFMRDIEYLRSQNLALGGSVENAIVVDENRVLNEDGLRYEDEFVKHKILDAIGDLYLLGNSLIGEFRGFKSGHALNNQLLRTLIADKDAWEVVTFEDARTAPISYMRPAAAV
# experiment: Inhibition of Pseudomonas aeruginosa LpxC expressed in Escherichia coli using UDP-3-O-N-acetylglucosamine substrate measured after 30 mins by mass spectrometry
pIC50: −log10 of the molar value.
Tick label 1 if pIC50 is 8 or greater. Tick label 0 if pIC50 is less than 8.

compound: C[C@@](CCn1ccc(/C=C/c2ccccc2)cc1=O)(C(=O)NO)S(C)(=O)=O
assignedCategory: label 1
--
compound: C[C@@](CCn1ccc(-c2cccc(F)c2)cc1=O)(C(=O)NO)S(C)(=O)=O
assignedCategory: label 1
--
compound: C[C@@](CCn1ccc(-c2ccc(-c3ccon3)cc2)cc1=O)(C(=O)NO)S(C)(=O)=O
assignedCategory: label 1
--
compound: CC(C)(C)c1ccn(CC[C@](C)(C(=O)NO)S(C)(=O)=O)c(=O)c1
assignedCategory: label 0
--
compound: C[C@@](CCn1ccc(-c2ccccc2)c(F)c1=O)(C(=O)NO)S(C)(=O)=O
assignedCategory: label 1
--
compound: C[C@@](CCn1ccc(-c2ccc3ccccc3c2)cc1=O)(C(=O)NO)S(C)(=O)=O
assignedCategory: label 1
--
compound: C[C@@](CCn1ccc(-c2c(F)cccc2F)cc1=O)(C(=O)NO)S(C)(=O)=O
assignedCategory: label 1
--
compound: CC(CCc1ccc(-c2ccccc2)nc1)(C(=O)NO)S(C)(=O)=O (racemic)
assignedCategory: label 0

----------
# experiment: Volume of distribution at steady state in rat at 10 mg/kg
# Type: ADME, organism-based
# Set-up: dose 10 mg/kg
# reportedConditions: in vivo, read-out: Vdss
Each entry below lists one item and its recorded Vd value.

smilesString: COc1ccc(-c2ccn(CC[C@](C)(C(=O)NO)S(C)(=O)=O)c(=O)c2)c(F)c1
Vd: 1.7 L/kg
--
smilesString: C[C@@](CCn1ccc(-c2ccc(-n3nccn3)cc2)cc1=O)(C(=O)NO)S(C)(=O)=O
Vd: 0.92 L/kg
--
smilesString: C[C@@](CCc1ccc(-c2ccccc2)cc1)(C(=O)NO)S(C)(=O)=O
Vd: 3.8 L/kg

----------
Each entry below lists one item and its recorded MIC90 value.
# Test system: Citrobacter freundii
# experiment: microbe, parasite or virus in culture
# Description: Antimicrobial activity against Citrobacter freundii after 16 to 20 hrs by 2-fold microbroth dilution method

smilesString: C[C@@](CCn1ccc(-c2ccc(F)c(F)c2F)cc1=O)(C(=O)NO)S(C)(=O)=O
MIC90 [mg/L]: 0.5
//
smilesString: C[C@@](CCn1ccc(-c2ccc(Cl)cc2F)cc1=O)(C(=O)NO)S(C)(=O)=O
MIC90 [mg/L]: 0.5
//
smilesString: COc1ccc(-c2ccn(CC[C@](C)(C(=O)NO)S(C)(=O)=O)c(=O)c2)c(F)c1
MIC90 [mg/L]: 0.5
